- Target System: human Survivin wild type (human, UniProt O15392 1-142)
- Sequence (O15392 whole entry): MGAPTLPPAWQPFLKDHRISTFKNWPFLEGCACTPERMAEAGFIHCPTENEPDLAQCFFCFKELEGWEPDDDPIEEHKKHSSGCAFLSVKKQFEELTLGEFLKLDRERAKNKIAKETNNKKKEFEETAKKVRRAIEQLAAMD
- Assay Comment: ITC
Observable: Kd (µM)

[
  {
    "Binder": "ARTKQTARKSTG [histone H3 N-terminal peptide ARTKQTARKSTG, unmodified]",
    "Observable": "Kd",
    "Value Measured": 30.2
  }
]
